Values from patent US20230203004A1

- test: Cytotoxicity in HeLa cells (ATP content, ATPlite kit)
- Format: cell-based
- testConditions: human, TOX HELA CC50
# CC50 at 3 days values compiled below
Answer format: value, then unit.

Please review the following examples before continuing.
Cc1cnc2c(OC3CC3)cc(C(=O)NC[C@](O)(c3cc(C(C)(C)O)c(F)c(-c4ccc(F)c(F)c4)n3)C3CC3)cc2c1 [compound 225] : 15 µM
COc1cc(C(=O)NCC(O)(c2nc(-c3ccc(F)cc3)cc(C(C)(C)O)c2F)C(F)(F)F)cc2cc(C)nnc12 (racemic) [compound 279] : 16 µM
COc1cc(C(=O)NC[C@](O)(c2cc(C(C)(C)O)c(F)c(-c3ccc(F)cc3)n2)C(F)(F)F)cc2cc(C(F)F)cnc12 [compound 325] : 13 µM

Shift focus to the following entry.
Q) Request the reported CC50 at 3 days associated with COc1cc(C(=O)NC[C@](O)(c2cc(C(C)(C)O)c(F)c(-c3ccc(F)cc3)n2)C2CC2)cc2cc(C3CC3)nnc12 [compound 271]
A) 11 µM

---

- Tested on: HeLa cells
- test: Cytotoxicity in HeLa cells (ATP content, ATPlite kit)
- Type: cell-based
- testConditions: HeLa cells, three days incubation, ATP content; averaged data of several repeat experiments; read-out: TOX HELA CC50
# CC50 values compiled below
Respond numerically; units are µM and should not be typed.

COc1cc(C(=O)NCC(O)(c2cc(C(C)(C)O)c(F)c(-c3ccc(F)c(F)c3)n2)C2CC2)cc2cc(C)nnc12 (single isomer, unassigned; (-)) : 33
COc1cc(C(=O)NCC(O)(c2cc(C(C)(C)O)c(F)c(-c3ccc(C(F)(F)F)cc3)n2)C2CC2)cc2cc(C)nnc12 (single isomer, unassigned; (-)) : 13
Cc1cc2cc(C(=O)NCC(O)(c3nc(-c4ccc(F)cc4)c(F)c(C(C)(C)O)c3F)C(F)(F)F)cc(OC3CC3)c2nn1 (single isomer, unassigned; (-)) : 45
COc1cc(C(=O)NCC(O)(c2cc(C(C)(C)O)c(Cl)c(-c3ccc(F)cc3)n2)C(C)C)cc2cc(C)nnc12 (single isomer, unassigned; (-)) : 21
COc1cc(C(=O)NCC(O)(c2nc(-c3ccc(F)cc3)c(Cl)c(C(C)(C)O)c2F)C(F)(F)F)cc2cc(C)nnc12 (single isomer, unassigned; (+)) : 41

Q) Request the reported CC50 associated with Cc1cc2cc(C(=O)NCC(O)(c3nc(-c4ccc(F)cc4)c(Cl)c(C(C)(C)O)c3F)C(F)(F)F)cc(OC3CC3)c2nn1 (single isomer, unassigned; (-))
A) 47

---

# CC50 at 3 days values compiled below
- test: Cytotoxicity in HeLa cells (ATP content, ATPlite kit)
- Assay type: cell-based
- testConditions: human, TOX HELA CC50
Respond numerically; units are µM and should not be typed.

Please review the following examples before continuing.
COc1cc(C(=O)NC[C@](O)(c2cc(C(C)(C)O)c(F)c(-c3ccc(F)c(F)c3)n2)C2CC2)cc2cc(C(F)F)nnc12 : 15
Cc1cc2cc(C(=O)NC[C@](O)(c3cc(C(C)(C)O)cc(-c4ccc(F)cc4)n3)C(F)(F)F)cc(OC3CC3)c2nn1 : 57
COc1cc(C(=O)NC[C@](O)(c2cc(C(C)(C)O)c(F)c(-c3ccc(F)cc3)n2)C2CC2)cc2cc(C(F)F)cnc12 : 15
COc1cc(C(=O)NC[C@](O)(c2cc(C(C)(C)O)c(F)c(-c3ccc(F)c(F)c3)n2)C2CC2)cc2cc(C)cnc12 : 25
[2H]C([2H])([2H])Oc1cc(C(=O)NC[C@](O)(c2cc(C(C)(C)O)c(F)c(-c3ccc(F)cc3)n2)C2CC2)cc2cc(C3CC3)nnc12 : 10
COc1cc(C(=O)NC[C@@](O)(c2cc(C(C)(C)O)c(F)c(-c3ccc(F)cc3)n2)C2(C)CC2)cc2cc(C)nnc12 : 12

Q) Request the reported CC50 at 3 days associated with COc1cc(C(=O)NC[C@](O)(c2cc(C(C)(C)O)c(F)c(-c3ccc(F)c(F)c3)n2)C(F)(F)F)cc2cc(C)nnc12
A) 19

Q) Request the reported CC50 at 3 days associated with COc1cc(C(=O)NC[C@](O)(c2cc(C(C)(C)O)c(F)c(-c3ccc(F)cc3)n2)C2CC2)cc2cc(C3CC3)cnc12
A) 14

Q) Request the reported CC50 at 3 days associated with COc1cc(C(=O)NC[C@](O)(c2nc(-c3ccc(F)cc3)c(Cl)c(C(C)(C)O)c2F)C(F)(F)F)cc2cc(C)c(F)nc12
A) 58

Q) Request the reported CC50 at 3 days associated with COc1cc(C(=O)NC[C@](O)(c2cc(C(C)(C)O)c(F)c(-c3ccc(C(F)(F)F)cc3)n2)C(F)(F)F)cc2cc(C)nnc12
A) 11

Q) Request the reported CC50 at 3 days associated with COc1cc(C(=O)NCC(O)(c2cc(C(C)(C)O)c(F)c(-c3ccc(F)cc3)n2)C(F)F)cc2cc(C)nnc12 (single isomer, unassigned; (+))
A) 35

Q) Request the reported CC50 at 3 days associated with COc1cc(C(=O)NC[C@](O)(c2nc(-c3ccc(F)cc3)c(F)c(C(C)(C)NS(C)(=O)=O)c2F)C(F)(F)F)cc2cc(C)nnc12
A) 45

---

- test: Cytotoxicity in HeLa cells (ATP content, ATPlite kit)
- Type: cell-based
- testConditions: human, TOX HELA CC50
# CC50 at 3 days values compiled below
Respond numerically; units are µM and should not be typed.

Please review the following examples before continuing.
COc1cc(C(=O)NC[C@](O)(c2cc(C(C)(C)O)c(F)c(-c3ccc(F)cc3)n2)C(F)(F)F)cc2cc(C3CC3)cnc12 [compound 321] : 13
COc1cc(C(=O)NC[C@](O)(c2cc(C(C)(C)O)c(Cl)c(-c3ccc(F)cc3)n2)C2CC2)cc2cc(C)cnc12 [compound 205] : 32

Q) Request the reported CC50 at 3 days associated with Cc1cc2cc(C(=O)NC[C@](O)(c3cc(C(C)(C)O)c(Cl)c(-c4ccc(F)cc4)n3)C3CC3)cc(OC3CC3)c2nn1 [compound 264]
A) 32

---

- test: Cytotoxicity in HeLa cells (ATP content, ATPlite kit)
- Format: cell-based
- testConditions: human, CC50
measuredMetric: CC50 at 3 days (µM)
Respond numerically; units are µM and should not be typed.

Please review the following examples before continuing.
CC(C)(O)c1cc([C@@](O)(CNC(=O)c2cc(OC3CC3)c3ncccc3c2)C(F)(F)F)nc(-c2ccc(F)cc2)c1F [Compound A, reference compound] : 37
COc1cc(C(=O)NC[C@](O)(c2cc(C(C)(C)O)c(F)c(-c3ccc(F)cc3)n2)C2CC2)cc2cc(C3CC3)nnc12 [compound 271] : 11
COc1cc(C(=O)NCC(O)(c2cc(C(C)(C)N)c(F)c(-c3ccc(F)c(Cl)c3)n2)C(F)(F)F)cc2cccnc12 (stereo not drawn) [reference compound] : 13
COc1cc(C(=O)NC[C@](O)(c2cc(C(C)(C)O)c(F)c(-c3ccc(F)cc3)n2)C(F)(F)F)cc2cc(C)nnc12 [compound 234] : 23
Cc1cnc2c(OC3CC3)cc(C(=O)NC[C@](O)(c3cc(C(C)(C)O)c(F)c(-c4ccc(F)cc4)n3)C(F)(F)F)cc2c1 [compound 272] : 17

Q) Request the reported CC50 at 3 days associated with COc1cc(C(=O)NC[C@](O)(c2cc(C(C)(C)O)c(F)c(-c3ccc(F)cc3)n2)C2CC2)cc2cc(C)nnc12 [compound 252]
A) 38

---

- Test system: HeLa cells
- test: Cytotoxicity in HeLa cells (ATP content, ATPlite kit)
- Format: cell-based
- testConditions: human, 3 days
measuredMetric: CC50

Please review the following examples before continuing.
Cc1cc2cc(C(=O)NC[C@](O)(c3cc(C(C)(C)O)c(F)c(-c4ccc(F)cc4)n3)C3(F)CC3)cc(OC3CC3)c2nn1 [compound 317] : 29 µM
COc1cc(C(=O)NCC(O)(c2cc(C(C)(C)O)c(F)c(-c3ccc(F)cc3)n2)C(F)F)cc2cc(C)c(F)nc12 (single isomer, unassigned; (-)) [compound 214] : 28 µM
COc1cc(C(=O)NCC(O)(c2cc(C(C)(C)O)c(F)c(-c3ccc(F)cc3)n2)C(F)F)cc2cc(C)cnc12 (single isomer, unassigned; (-)) [compound 204] : 48 µM
COc1cc(C(=O)NCC(O)(c2cc(C(C)(C)O)c(F)c(-c3ccc(F)cc3)n2)C(F)F)cc2cc(C)nnc12 (single isomer, unassigned; (-)) [compound 250] : 40 µM

Shift focus to the following entry.
Q) Provide value of CC50 for this record tested with HeLa cells: Cc1cc2cc(C(=O)NC[C@](O)(c3cc(C(C)(C)O)c(F)c(-c4ccc(F)cc4)n3)C3(F)CC3)cc(OC3CC3)c2nn1 [compound 335]
A) ~14 µM
